The measurements presented in this section are drawn from patent US20230390362A1.

- TESTED SYSTEM: human GCG receptor (human, UniProt P47871 26-477)
- Sequence (P47871 26-477): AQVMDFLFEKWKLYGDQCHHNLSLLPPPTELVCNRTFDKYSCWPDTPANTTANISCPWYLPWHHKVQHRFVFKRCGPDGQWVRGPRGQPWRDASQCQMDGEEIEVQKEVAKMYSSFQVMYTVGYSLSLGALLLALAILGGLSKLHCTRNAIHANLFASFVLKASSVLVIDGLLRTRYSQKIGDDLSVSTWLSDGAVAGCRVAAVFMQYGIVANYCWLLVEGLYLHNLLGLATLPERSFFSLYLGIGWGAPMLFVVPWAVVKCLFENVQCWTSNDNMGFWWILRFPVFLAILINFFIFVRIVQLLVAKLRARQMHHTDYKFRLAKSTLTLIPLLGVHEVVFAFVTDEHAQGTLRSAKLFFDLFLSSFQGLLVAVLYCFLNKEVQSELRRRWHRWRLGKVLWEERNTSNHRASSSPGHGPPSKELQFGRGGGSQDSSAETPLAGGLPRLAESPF
- EXPERIMENTAL DETAILS: cell-based or functional assay
Positions of bridges follow the written chain, without caps; N, C: chain ends. Non-standard residues stand in square brackets, D forms with d. No end group written: not given here. *: point of attachment. Acetyl(2-(4-imidazolyl)) = O=C(Cc1c[nH]cn1)*; Aib = CC(C)(N)C(=O)O
VALUE TYPE: In vitro activity relative to native peptide (%), vs. Glucagon (cAMP EC50)

Guide cases for In vitro activity relative to native peptide (%), vs. Glucagon (cAMP EC50), answers given:
[
  {
    "BINDER": "{Acetyl(2-(4-imidazolyl))}-[Aib]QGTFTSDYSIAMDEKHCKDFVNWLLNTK (bridge 15-19) [trigonal agonist of SEQ ID NO: 60]",
    "VALUE": "< 0.1%"
  },
  {
    "BINDER": "{Acetyl(2-(4-imidazolyl))}-GQGTFTSDLSIQYEEEAQQDFVEWLKDTGPSSGAPPPSHG [trigonal agonist of SEQ ID NO: 20]",
    "VALUE": "< 0.1%"
  },
  {
    "BINDER": "{Acetyl(2-(4-imidazolyl))}-GQGTFTSDYSIQLDEIAVRDFVEWLKNGGPSSGAPPPSHG [trigonal agonist of SEQ ID NO: 14]",
    "VALUE": "< 0.1%"
  }
]

Task item: Respond only with In vitro activity relative to native peptide (%), vs. Glucagon (cAMP EC50) recorded for H[Aib]QGTFTSDKSKYLDERACQDFVQWLLDGGPSSGAPPPS [trigonal agonist of SEQ ID NO: 40]
Reply: < 0.1%

Task item: Respond only with In vitro activity relative to native peptide (%), vs. Glucagon (cAMP EC50) recorded for {Acetyl(2-(4-imidazolyl))}-GQGTFTSDLSKQMDSEAQQLFIEWLKNGGPSSGAPPPSHG [trigonal agonist of SEQ ID NO: 16]
Reply: < 0.1%

Task item: Respond only with In vitro activity relative to native peptide (%), vs. Glucagon (cAMP EC50) recorded for {Acetyl(2-(4-imidazolyl))}-[Aib]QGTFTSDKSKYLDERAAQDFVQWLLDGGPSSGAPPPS [trigonal agonist of SEQ ID NO: 62]
Reply: < 0.1%

Task item: Respond only with In vitro activity relative to native peptide (%), vs. Glucagon (cAMP EC50) recorded for {Acetyl(2-(4-imidazolyl))}-GQGTFTSDLSIQYDSEHQRDFIEWLKDTGPSSGAPPPSHG [trigonal agonist of SEQ ID NO: 19]
Reply: < 0.1%
